Test system: Athalia rosae ruficornis
Test: Pharmacophagous feeding stimulant activity in Athalia rosae ruficornis assessed as insect fed on paper for more than 10 seconds at 10^-6 g/filter paper
Assay type: functional
Measurement Name: Activity

Solved cases (3 shown):
Molecule	Activity
CCC(C)C(=O)O[C@@H]1CC[C@]2(CO2)[C@]2(COC(C)=O)[C@@H](OC(C)=O)C[C@@H](C)[C@](C)(C[C@H](O)C3=CC(=O)OC3)[C@@H]12 (some centres undefined) [DIHYDROAJUGAMARIN]	<10%
C/C=C(\C)C(=O)O[C@@H](C[C@@]1(C)[C@H](C)C[C@H](OC(C)=O)[C@]2(COC(C)=O)[C@@H]1[C@H](OC(=O)/C(C)=C/C)CC[C@]21CO1)C1=CC(=O)OC1	<10%
CC[C@H](C)C(=O)O[C@@H](C[C@@]1(C)[C@H](C)C[C@H](OC(C)=O)[C@]2(COC(C)=O)[C@@H]1C(=O)C[C@H](O)[C@]21CO1)C1=CC(=O)OC1	<10%

// below: Activity requested for another molecule
Ask: State its Activity for this molecule: `C/C=C(\C)C(=O)O[C@@H]1CC[C@]2(CO2)[C@]2(COC(C)=O)[C@@H](OC(C)=O)C[C@@H](C)[C@](C)(C[C@H](OC(=O)[C@@H](C)CC)C3=CC(=O)OC3)[C@@H]12`
Reply: <10%
